# Tested on: Plasmodium berghei
# Test Protocol: Screen against P. berghei liver stage (PbLuc), transformed with Luciferase, at 2uM
# Assay type: functional, HepG2
# Protocol Conditions: tested at 2 uM
Hit rate of the full screen: of about 68,000 compounds, about 2,700 (4%) showed an effect of 50% or more. Many of the other results were omitted from the sample, so strong results are more common in it than they were.
Below: a set of entries, each annotated with reported INHIBITION.
Return type: number; implicit unit %.

Exercise: Return the recorded INHIBITION value; entry: CC(C)(C)c1n[nH]c(C2CN(C(=O)c3ccsc3)CCO2)n1 (stereo not drawn)
Key: 31.19

Exercise: Provide only the value of recorded INHIBITION for "COc1ccc2c(c1)nc1n2[C@@H](CNCc2nccs2)COC1"
Key: 24.42

Exercise: Quick one: give measured INHIBITION for CCC1(C(=O)O)CCCN(C(=O)c2ccc(O)c(Cl)c2)C1 (stereo not drawn)
Key: -2.86

---

# Tested on: Plasmodium berghei
# Test Protocol: Screen against P. berghei liver stage (PbLuc), transformed with Luciferase, at 2uM
# Assay type: functional, HepG2
# Protocol Conditions: tested at 2 uM
In all, about 68,000 compounds went through this assay and about 2,700 (4%) showed an effect of 50% or more. Many of the other results were omitted from the sample, so strong results are more common in it than they were.
INHIBITION listing for selected molecules.
Answer with a number only, understood to be in %.

Below are worked cases with known answers.
>>> observed_result("O=C1CC[C@H]2CN(Cc3cccnc3)CC[C@H]2N1CCc1c[nH]cn1")
50.94
>>> observed_result("Cc1cc(C)n(-c2ccc(N3CCC4(CC3)OCC(C)O4)nc2)n1 (centres undefined)")
-11.55
>>> observed_result("CC(C)c1csc(NC(=O)NC2CCCN(c3cnn(C)c3)C2)n1 (centres undefined)")
-20.08

Exercise: // fetch INHIBITION; item: Cc1ccc(NC(=O)CS(=O)(=O)NC2CCC(C)CC2)nc1 (centres undefined) ; system: Plasmodium berghei
Key: 59.03

Exercise: Report value only: INHIBITION, Plasmodium berghei, CCOCC1CN(c2ccncn2)Cc2cnn(CC)c21 (centres undefined)
Key: 32.69

Exercise: Look up and report INHIBITION, with Plasmodium berghei as system, for COC(=O)N1CCCC(NC(=O)NCc2ccc(C)nc2)C1 (centres undefined)
Key: 22.07

Exercise: Report INHIBITION under test system Plasmodium berghei for CCCC(C)NC(=O)c1ccc(-c2ccco2)[nH]c1=O (centres undefined) .
Key: -1.87

Exercise: Please report INHIBITION with Plasmodium berghei for item "CN(C)CC(=O)N1Cc2nc(C(=O)N3CCCN(C)CC3)oc2C1" .
Key: 13.25

Exercise: Give INHIBITION for this entry on Plasmodium berghei: "CC(=O)N1CCc2[nH]cnc2C12CCN(C(=O)Cc1ccccn1)CC2"
Key: 39.58

Exercise: Report INHIBITION under test system Plasmodium berghei for "CCOc1ccc(C(=O)NCCCNc2ncccn2)cc1" .
Key: 50.59

Exercise: State measured INHIBITION of the molecule "CC(=O)N1CCc2[nH]cnc2C12CCN(C(=O)Cc1cccs1)CC2" with Plasmodium berghei.
Key: 63.14

Exercise: Please respond with reported INHIBITION (system Plasmodium berghei) for Cc1ccc(C)c(OCc2cc(C(=O)N(C)CC(O)CO)no2)c1 (centres undefined) .
Key: -10.86

Exercise: GET INHIBITION where system = Plasmodium berghei and item = "CCCS(=O)(=O)c1ccc(N2CCN(Cc3ccccc3)CC2)nn1"
Key: 27.54

Exercise: State, for Plasmodium berghei, measured INHIBITION of the molecule listed here: COCCNC(=O)C1CN(Cc2csc(C)n2)Cc2ccnn2C1 (centres undefined)
Key: 47.54
